Measured pIC50 accompanies every entry in the list below.
System: HCT-116
ASSAY_NOTES: Cytotoxicity against human HCT116 cells after 72 hrs by CCK8 assay
Format: functional, cell-based
MEASUREMENT_CONTEXT: HCT-116, 72 h
// pIC50 is dimensionless: -log10 of concentration (M)

C=C[C@]1(C)C=C2C(=O)C(O)=C3[C@](C)(COC(C)=O)[C@H](OC(C)=O)C[C@H]4C[C@@]34[C@@]2(O)CC1 ... 5.66

Proceed to the following item.
Prompt: Given the entry `C=C[C@]1(C)C=C2C(=O)C(O)=C3[C@@]4(O)[C@H](C[C@H](OC(C)=O)[C@]3(C)COC(=O)C(C)C)C[C@]24CC1` , report its measured pIC50.
Response: 4.90

###

Test system: HCT-116
ASSAY_NOTES: Cytotoxicity against human HCT116 cells after 72 hrs by CCK8 assay
Format: functional, cell-based
MEASUREMENT_CONTEXT: HCT-116, 72 h
# maps each entry to its IC50
Expressed in µM, but write only the number.

C=C[C@]1(C)C=C2C(=O)C(O)=C3[C@](C)(COC(=O)C(C)C)[C@H](OC(C)=O)C[C@H]4C[C@@]34[C@@]2(O)CC1 ... 1

Let us move to another entry and its IC50.
Prompt: Look at this compound and give its reported IC50. `C=C[C@]1(C)C=C2C(=O)C(O)=C3[C@@]4(OC)[C@H](C[C@H](OC(C)=O)[C@]3(C)COC(=O)C(C)C)C[C@]24CC1`
Response: 8.4

###

System: MCF7
ASSAY_NOTES: Cytotoxicity against human MCF7 cells after 72 hrs by CCK8 assay
Type: functional, cell-based
MEASUREMENT_CONTEXT: MCF7, 72 h
IC50 under 4 µM gets YES, anything at or over 4 µM gets NO.

C=C[C@]1(C)C=C2C(=O)C(O)=C3[C@](C)(COC(=O)C(C)C)[C@H](OC(C)=O)C[C@H]4C[C@@]34[C@@]2(O)CC1 ... YES
C=C[C@]1(C)C=C2C(=O)C(O)=C3[C@@]4(O)[C@H](C[C@H](OC(C)=O)[C@]3(C)COC(=O)C(C)C)C[C@]24CC1 ... NO
C=C[C@]1(C)C=C2C(=O)C(O)=C3[C@@]4(OC)[C@H](C[C@H](OC(C)=O)[C@]3(C)COC(=O)C(C)C)C[C@]24CC1 ... NO
C=C[C@@]1(C)CCC2=C(C(=O)O[C@@H]3CC[C@@]4(C)COC(=O)[C@@H]4[C@]23C)[C@H]1O ... NO
C=C[C@]1(C)C=C2C(=O)C(O)=C3[C@](C)(COC(=O)C(C)C)[C@H](O)C[C@H]4C[C@@]34[C@@]2(O)CC1 ... YES

Prompt: Does the reported IC50 of `C=C[C@]1(C)C=C2C(=O)C(=O)[C@H]3[C@](C)(COC(=O)C(C)C)[C@H](OC(C)=O)C[C@H]4C[C@]43[C@@]2(O)CC1` stay below 4 µM?
Response: NO

Prompt: `C=C[C@]1(C)C=C2C(=O)C(O)=C3[C@](C)(COC(=O)CC)[C@H](OC(C)=O)C[C@H]4C[C@@]34[C@@]2(O)CC1` , same question.
Response: YES

Prompt: Request: `C=C[C@]1(C)C=C2C(=O)[C@H](O)[C@H]3[C@](C)(COC(=O)C(C)C)[C@H](OC(C)=O)C[C@H]4C[C@]43[C@@]2(O)CC1`
Response: NO
